The measured values listed here are drawn from the RNAGym collection of RNA variant scans (doi:10.1073/pnas.2313332121).

B1: TPR 5TU (parent)
chain: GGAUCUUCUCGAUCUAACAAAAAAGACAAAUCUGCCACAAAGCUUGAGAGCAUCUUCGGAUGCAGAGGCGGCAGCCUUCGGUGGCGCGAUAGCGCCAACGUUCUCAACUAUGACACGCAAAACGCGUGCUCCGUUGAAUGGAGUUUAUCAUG

variants of: B1; experiment: polymerase ribozyme fitness, log enrichment relative to wild type (log ratio); higher = more active; in vitro selection for triplet polymerase activity
Variants at the floor of the assay were thinned out.
Classify as follows. Reported polymerase ribozyme fitness (log ratio) greater than or equal to -3: true (1). Reported polymerase ribozyme fitness (log ratio) below: false (0).

Record excerpt, results attached:
[[record]]
alteration = "C8U C96U"
discrete_label = "true (1)"

[[record]]
alteration = "A21C A24G A39G C54U U78G G94A C129G U134G G140U U145G"
discrete_label = "false (0)"

[[record]]
alteration = "C87G G92C G126A"
discrete_label = "true (1)"

[[record]]
alteration = "G58A G86U"
discrete_label = "true (1)"


Reported polymerase ribozyme fitness (log ratio) reaches at least -3 for A97U C99G ?
true (1)

Reported polymerase ribozyme fitness (log ratio) reaches at least -3 for U53A U146G ?
true (1)

Reported polymerase ribozyme fitness (log ratio) reaches at least -3 for A22U U148A ?
true (1)

Reported polymerase ribozyme fitness (log ratio) reaches at least -3 for U4C C5U A20C C87A A98C G133U U148G ?
false (0)

Reported polymerase ribozyme fitness (log ratio) reaches at least -3 for U15C ?
true (1)

Reported polymerase ribozyme fitness (log ratio) reaches at least -3 for C27U G59A G67C G86C C99U ?
false (0)

Reported polymerase ribozyme fitness (log ratio) reaches at least -3 for C5G U6C G50A ?
true (1)
